binders and their reported Geometric Mean : Alexa Fluor 647-H
- TEST_SYSTEM: T1, human ROR1 expressed on CHO cells (CHO-K1/Human ROR1 stable cells) (human, UniProt Q01973 30-937)
- T1 construct: whole, on cells; also called CHO-K1/ROR1/Luc (Nanjing Probio, Cat #RD00949)
- T1 sequence (Q01973 30-937): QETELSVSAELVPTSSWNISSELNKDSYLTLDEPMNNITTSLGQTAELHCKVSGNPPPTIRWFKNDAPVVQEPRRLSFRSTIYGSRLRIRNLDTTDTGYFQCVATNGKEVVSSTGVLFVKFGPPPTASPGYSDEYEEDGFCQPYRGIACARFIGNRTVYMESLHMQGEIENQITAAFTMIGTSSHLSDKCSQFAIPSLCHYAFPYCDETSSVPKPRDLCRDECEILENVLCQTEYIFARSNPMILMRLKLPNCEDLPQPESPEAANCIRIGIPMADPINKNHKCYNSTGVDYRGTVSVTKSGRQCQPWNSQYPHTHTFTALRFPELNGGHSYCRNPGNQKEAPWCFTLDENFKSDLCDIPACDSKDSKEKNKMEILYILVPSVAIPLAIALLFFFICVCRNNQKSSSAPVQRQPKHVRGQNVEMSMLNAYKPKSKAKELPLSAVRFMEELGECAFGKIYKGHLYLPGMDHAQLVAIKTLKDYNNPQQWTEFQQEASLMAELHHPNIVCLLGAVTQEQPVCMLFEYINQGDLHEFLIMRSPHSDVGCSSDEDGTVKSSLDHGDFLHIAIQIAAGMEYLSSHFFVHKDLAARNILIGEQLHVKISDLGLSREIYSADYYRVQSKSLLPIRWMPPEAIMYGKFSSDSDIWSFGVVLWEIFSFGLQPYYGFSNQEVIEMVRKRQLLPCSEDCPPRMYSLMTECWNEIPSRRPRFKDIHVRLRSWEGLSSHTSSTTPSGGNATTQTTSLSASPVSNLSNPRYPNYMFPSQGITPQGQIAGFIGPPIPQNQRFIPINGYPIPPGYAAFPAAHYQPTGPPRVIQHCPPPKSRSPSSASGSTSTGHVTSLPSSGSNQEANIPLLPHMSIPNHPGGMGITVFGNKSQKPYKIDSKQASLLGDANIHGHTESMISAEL
- ASSAY_OVERVIEW: flow cytometry, 10 ug/ml antibody on Human ROR1-CHO-K1 cells (curve 1), fluorescent secondary antibody
Provide a numeric answer; units are not to be included.

Check out these entries, answers already filled in.
# BINDER, ASSAY_RESULT
rows = [
    ("single domain antibody AHP15773 (Fc fusion, VHH expressed from pcDNA3.4-Fc (HuIgG1); also called AHP15773-VHH; not shown: human IgG1 Fc of the pcDNA3.4-Fc (HuIgG1) expression vector) EVQLVESGGGLVQPGGSLRLSCLASGSDFSDSAMGWYRQAPGKQREFVAAIGAGGITTYADSVKGRFTISRDSAKNIVYLQMSSLSPEDTAVYFCNFAPGWYPPGYQYWGQGTQVTVSS", 33400),
    ("humanized single domain antibody AHP15773-VHH4 (Fc fusion, Humanized VHH expressed from pcDNA3.4-Fc (Human IgG1); not shown: human IgG1 Fc of the pcDNA3.4-Fc (Human IgG1) expression vector) EVQLVESGGGLVQPGGSLRLSCAASGSDFSDSAMGWYRQAPGKQREFVAAIGAGGITTYADSVKGRFTISRDNAKNTLYLQMNSLRAEDTAVYFCNFAPGWYPPGYQYWGQGTLVTVSS", 28700),
    ("humanized single domain antibody AHP15485-VHH4 (Fc fusion, Humanized VHH expressed from pcDNA3.4-Fc (Human IgG1); not shown: human IgG1 Fc of the pcDNA3.4-Fc (Human IgG1) expression vector) EVQLVESGGGLVQPGGSLRLSCAASGRSFSNFQMGWFRQAPGKEREFVAASGWSGGPTYYADSVKGRFTISTDNSKNTLYLQMNSLRAEDTAVYYCYEDRVLSGRPVRYWGQGTLVTVSS", 38500),
    ("single domain antibody AHP15485 (Fc fusion, Alpaca VHH expressed from pcDNA3.4-Fc (HuIgG1) in HEK293-6E; also called AHP15485-VHH; not shown: human IgG1 Fc of the pcDNA3.4-Fc (HuIgG1) expression vector) EVQLVESGGGLAQAGGSLSLSCTASGRSFSNFQMGWFRQAPGKEREFVAASGWSGGPTYYADSVKGRFTISTDDSKKTMYLQMNSLKPEDTAAYYCYEDRVLSGRPVRYWGRGTQVTVSS", 61400),
    ("humanized single domain antibody AHP15662-VHH4 (Fc fusion, Humanized VHH expressed from pcDNA3.4-Fc (Human IgG1); not shown: human IgG1 Fc of the pcDNA3.4-Fc (Human IgG1) expression vector) EVQLVESGGGLVQPGGSLRLSCAASGSISRFYAVGWYRQAPGKQRELVARISSGGSTYYADSVKGRFTISIDNSKNTLYLQMNSLRAEDTAVYYCNARNLWGQGTLVTVSS", 55400),
]

(Q) Which Geometric Mean : Alexa Fluor 647-H value belongs to single domain antibody AHP15662 (Fc fusion, VHH expressed from pcDNA3.4-Fc (HuIgG1); also called AHP15662-VHH; not shown: human IgG1 Fc of the pcDNA3.4-Fc (HuIgG1) expression vector) EVQLVESGGGLVQPGGTLRLSCAASGSISRFYAVGWYRQAPGKQRELVARISSGGSTYYADSVKGRFTISINNSKNTVYLQMNNLKPEDTAVYYCNARNLWGQGTQVTVSS ?
(A) 56400
